Data credit: paper PMC10786891

- SUBJECT_OF_TEST: T1, EsCas13d, nuclease-dead (Eubacterium siraeum, UniProt B0MS50, R295A;H300A;R849A;H854A)
- T1 sequence: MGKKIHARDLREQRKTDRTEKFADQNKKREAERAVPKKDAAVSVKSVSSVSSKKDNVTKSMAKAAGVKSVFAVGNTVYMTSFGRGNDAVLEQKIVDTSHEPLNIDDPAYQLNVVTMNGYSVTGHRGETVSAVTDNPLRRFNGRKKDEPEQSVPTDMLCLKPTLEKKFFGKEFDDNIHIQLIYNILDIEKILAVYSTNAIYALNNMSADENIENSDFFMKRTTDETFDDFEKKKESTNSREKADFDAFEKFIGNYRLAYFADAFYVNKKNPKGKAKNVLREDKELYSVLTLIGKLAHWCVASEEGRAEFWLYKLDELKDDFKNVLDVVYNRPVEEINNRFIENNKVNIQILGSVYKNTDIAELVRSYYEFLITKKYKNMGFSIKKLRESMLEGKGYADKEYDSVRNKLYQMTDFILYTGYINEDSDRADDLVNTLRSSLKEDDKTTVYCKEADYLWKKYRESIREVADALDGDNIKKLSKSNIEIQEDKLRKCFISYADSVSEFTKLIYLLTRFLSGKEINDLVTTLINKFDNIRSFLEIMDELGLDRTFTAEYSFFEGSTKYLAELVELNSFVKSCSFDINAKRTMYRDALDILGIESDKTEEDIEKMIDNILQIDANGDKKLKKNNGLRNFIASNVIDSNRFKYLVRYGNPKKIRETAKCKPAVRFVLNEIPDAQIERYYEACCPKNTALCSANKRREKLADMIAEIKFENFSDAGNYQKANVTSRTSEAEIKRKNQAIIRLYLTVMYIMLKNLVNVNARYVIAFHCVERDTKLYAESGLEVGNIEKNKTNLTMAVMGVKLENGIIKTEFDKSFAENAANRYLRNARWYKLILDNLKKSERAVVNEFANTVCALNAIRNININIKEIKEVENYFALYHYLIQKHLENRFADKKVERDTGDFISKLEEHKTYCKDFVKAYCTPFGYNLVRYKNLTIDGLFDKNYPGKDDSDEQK
- PROTOCOL_DETAILS: crRNA (strand 1, pre-loaded); Mg2+; 40 mM Tris-HCl pH 7.5, 150 mM NaCl, 6 mM MgCl2, 1 mM DTT, 0.1% Tween-20, 0.2 mg/ml BSA; 25 C; 10 min per concentration, then washed
- APPLIED_CONDITIONS: tags: His6-TwinStrep-SUMO cleaved; N-terminal SNAP kept (SNAP-Surface 488); label: 3' end held by stalled T7 RNA polymerase

[
  {
    "BINDER": "target 1 MT 5'PFS UCA 3'PFS UAG (mixed) RNA 1: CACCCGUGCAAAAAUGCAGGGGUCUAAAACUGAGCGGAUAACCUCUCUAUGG RNA 2: GGGAAUGGAUCCACAUCUACGAAUUCUCACCAUAGAGAGGUUAUCCGCUCAUAGAGAUCGGAAGAGCACACGU",
    "Kd": "~50 nM"
  },
  {
    "BINDER": "target 3 U2C,G14A (mixed) RNA 1: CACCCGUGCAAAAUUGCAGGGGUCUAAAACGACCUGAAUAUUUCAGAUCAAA RNA 2: GGGAAUGGAUCCACAUCUACGAAUUCGUUUUUGAUCUAAAAUAUUCAGGCCUGCAGAUCGGAAGAGCACACGU",
    "Kd": "~64.5 nM"
  },
  {
    "BINDER": "target 1 U11C,U19C (mixed) RNA 1: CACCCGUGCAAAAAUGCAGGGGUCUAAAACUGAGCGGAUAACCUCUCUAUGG RNA 2: GGGAAUGGAUCCACAUCUACGAAUUCGUACCACAGAGAGGCUAUCCGCUCACCGAGAUCGGAAGAGCACACGU",
    "Kd": "~80 nM"
  },
  {
    "BINDER": "target 1 MT 5'PFS AGG 3'PFS AAU (mixed) RNA 1: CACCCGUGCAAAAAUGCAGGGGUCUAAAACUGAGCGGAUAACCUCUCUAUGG RNA 2: GGGAAUGGAUCCACAUCUACGAAUUCAGGCCAUAGAGAGGUUAUCCGCUCAAAUAGAUCGGAAGAGCACACGU",
    "Kd": "~60 nM"
  }
]
